The measured values listed here are drawn from patent US11440923B2.

# Tested on: SUDHL5 cells
# test: Induction of cytotoxicity in SUDHL5 cells (Assay 6)
# Type: cell-based
# assay.conditions: Homo sapiens, SU-DHL-5, 5 h, 5 h, CellTiter-Glo; read-out: Cytotox SUDHL5 IC50 (median)
Hi! Could you tag entries with IC50 below 100 nM as true, and those at or above as false? Much appreciated.

compound	experimental.target	class.label
CCc1c2c(nn1C)C(CCCN1CCOCC1)OCCCCn1c(C(=O)O)c(CCCOc3cccc4cc(F)ccc34)c3ccc(Cl)c-2c31 (racemic)	SUDHL5 cells	true
CCc1c2c(nn1C)C(C(F)(F)F)OCCCCn1c(C(=O)O)c(CCCOc3cccc4ccccc34)c3ccc(Cl)c-2c31 (racemic)	SUDHL5 cells	false
Cc1c2c(nn1C)C(CCN1CCOCC1)OCCCCn1c(C(=O)O)c(CCCOc3cccc4cc(F)ccc34)c3ccc(Cl)c-2c31 (single isomer, unassigned; enantiomer 1) [Example 17]	SUDHL5 cells	true
Cc1c2c(nn1C)C(CCN1CCOCC1)OCCCCn1c(C(=O)O)c(CCCOc3cccc4cc(F)ccc34)c3ccc(F)c-2c31 (racemic) [Example 19]	SUDHL5 cells	true
CCC1OCCCCn2c(C(=O)O)c(CCCOc3cccc4ccccc34)c3ccc(Cl)c(c32)-c2c1nn(C)c2C (racemic)	SUDHL5 cells	false
CCc1c2c(nn1C)C(CCN1CCN(C)CC1)OCCCCn1c(C(=O)O)c(CCCOc3cccc4cc(F)ccc34)c3ccc(Cl)c-2c31 (single isomer, unassigned; stereoisomer 4)	SUDHL5 cells	false
CCc1c2c(nn1C)C(c1ccccc1)OCCCCn1c(C(=O)O)c(CCCOc3cccc4cc(F)ccc34)c3ccc(Cl)c-2c31 (racemic)	SUDHL5 cells	false
CCc1c2c(nn1C)C(CCN1CC(F)(F)C1)OCCCCn1c(C(=O)O)c(CCCOc3cccc4cc(F)ccc34)c3ccc(Cl)c-2c31 (racemic)	SUDHL5 cells	true
CCc1c2c(nn1C)C(CCO)OCCCCn1c(C(=O)O)c(CCCOc3cccc4cc(F)ccc34)c3ccc(Cl)c-2c31 (racemic)	SUDHL5 cells	false
Cc1c2c(nn1C)C(CCN1CCOCC1)OCCCCn1c(C(=O)O)c(CCCOc3cccc4ccccc34)c3cccc-2c31 (racemic)	SUDHL5 cells	false
Cc1c2c(nn1C)C(C)OCCCCn1c(C(=O)O)c(CCCOc3cccc4ccccc34)c3cccc-2c31 (racemic)	SUDHL5 cells	false
CCc1c2c(nn1C)C(CCN1CCC(F)(F)C1)OCCCCn1c(C(=O)O)c(CCCOc3cccc4cc(F)ccc34)c3ccc(Cl)c-2c31 (single isomer, unassigned; enantiomer 1) [Example 58]	SUDHL5 cells	true
Cc1c2c(nn1C)C(CCN1CCOCC1)OCCCCn1c(C(=O)O)c(CCCOc3cccc4cc(F)ccc34)c3ccc(Cl)c-2c31 (racemic) [Example 16]	SUDHL5 cells	true
Cc1c2c(nn1C)C(CCN1CCOCC1)OCCCCn1c(C(=O)O)c(CCCOc3cccc4cc(F)ccc34)c3ccc(Cl)c-2c31 (single isomer, unassigned; enantiomer 2) [Example 18]	SUDHL5 cells	false
CCc1c2c(nn1C)C(CCC(C)(C)O)OCCCCn1c(C(=O)O)c(CCCOc3cccc4cc(F)ccc34)c3ccc(Cl)c-2c31 (racemic)	SUDHL5 cells	true
CCc1c2c(nn1C)C(Cc1ccccc1)OCCCCn1c(C(=O)O)c(CCCOc3cccc4cc(F)ccc34)c3ccc(Cl)c-2c31 (racemic)	SUDHL5 cells	false
CCc1c2c(nn1C)C(CCN1CCOCC1)OCCCCn1c(C(=O)O)c(CCCOc3cccc4cc(F)ccc34)c3ccc(F)c-2c31 (racemic)	SUDHL5 cells	true
Cc1c2c(nn1C)C(CCN1CCOCC1)OCCCCn1c(C(=O)O)c(CCCOc3cccc4ccccc34)c3ccc(F)c-2c31 (racemic)	SUDHL5 cells	false
CCc1c2c(nn1C)C(CCOC)OCCCCn1c(C(=O)O)c(CCCOc3cccc4cc(F)ccc34)c3ccc(Cl)c-2c31 (racemic)	SUDHL5 cells	false
CCc1c2c(nn1C)C1CCCCN1CCCCn1c(C(=O)O)c(CCCOc3cccc4ccccc34)c3ccc(Cl)c-2c31 (racemic) [Example 103]	SUDHL5 cells	false
Cc1c2c(nn1C)C(CCN1CCOCC1)OCCCCn1c(C(=O)O)c(CCCOc3cccc4ccccc34)c3ccc(Cl)c-2c31 (racemic)	SUDHL5 cells	true
CCc1c2c(nn1C)C(C1CC1)OCCCCn1c(C(=O)O)c(CCCOc3cccc4cc(F)ccc34)c3ccc(Cl)c-2c31 (racemic)	SUDHL5 cells	false
CCc1c2c(nn1C)C(CCN1CCOCC1)OCCCCn1c(C(=O)O)c(CCCOc3cccc4cc(F)ccc34)c3ccc(Cl)c-2c31 (racemic)	SUDHL5 cells	true
